ASSAY_INFO: Preliminary toxicity in the mouse
MEASUREMENT_CONTEXT: in vivo, po, read-out: Prel. tox mouse
PROPERTY_MEASURED: LD50 (mg/kg)
Only the number, expressed in mg/kg, is required.

The value of LD50 measured for the compound "Cc1ccc(CSc2nc3cc4c(cc3[nH]2)CCC4)nc1.Cl.Cl" turned out to be 1250

The value of LD50 measured for the compound "c1ccc(CSc2nc3cc4c(cc3[nH]2)OCO4)nc1" turned out to be 1250

The value of LD50 measured for the compound Cc1ccc(C[S+]([O-])c2nc3cc4c(cc3[nH]2)OCO4)nc1 (stereo not shown) turned out to be 5000

The value of LD50 measured for the compound "CC1(C)C(=O)C(C)(C)c2cc3[nH]c(SCc4ccccn4)nc3cc21" turned out to be 2500
